# Tested on: SK-MEL-28
# TEST NAME: NCI tumour cell line growth inhibition, 48 h
Active and inactive are the calls of the source. No stated cut-off is given here; in the data, active = GI50 up to about 1.1 µM and inactive = higher.
READOUT LABEL: GI50

Some compounds with known GI50 results, for comparison:
COMPOUND: CC(=O)O[C@H]1[C@H](OC(C)=O)[C@@H](CN=[N+]=[N-])OCO[C@@H]1CN=[N+]=[N-]
READOUT LABEL: GI50
RESULT: > 100 µM (inactive)
--
COMPOUND: Cc1cccc(C)c1Nc1nc(C)c(C(=O)CC(=O)C(=O)Nc2c(C(C)C)cccc2C(C)C)s1
READOUT LABEL: GI50
RESULT: > 100 µM (inactive)
--
COMPOUND: CC(/C=C/c1ccccc1)=N\NC(N)=S
READOUT LABEL: GI50
RESULT: > 100 µM (inactive)
--
COMPOUND: CC1CCSC(N(C(=O)N(C)c2ccccc2)c2ccccc2)=N1 (stereo unspecified)
READOUT LABEL: GI50
RESULT: > 100 µM (inactive)
--
COMPOUND: CCOc1ccc(/N=N/C2C(=O)N(C(=O)CC(=O)Nc3ccccc3)N=C2C)cc1 (stereo unspecified)
READOUT LABEL: GI50
RESULT: 48.5 µM (inactive)
--
COMPOUND: COc1ccc(NCc2cc(OC)c(OC)c(OC)c2)cc1
READOUT LABEL: GI50
RESULT: 0.396 µM (active)
--
COMPOUND: O=c1c(-c2ccccc2)c(O)nc2[nH]c3ccccc3n12
READOUT LABEL: GI50
RESULT: > 100 µM (inactive)
--
COMPOUND: CCOC(=O)C1=NN(c2ccc(C)cc2)C2=CC(C)=NN(C)C(=S)N21
READOUT LABEL: GI50
RESULT: > 100 µM (inactive)

Give the value of GI50 reported for the following: Cc1cc(N(CCC#N)S(=O)(=O)c2ccccc2)ccc1/C=C1\N=C(c2ccc(Cl)cc2)OC1=O
> 100 µM (inactive)

Annotate the compound CCOC(=O)C(C)(C(=O)OCC)/C(Cl)=C\Cl with its measured GI50.
> 100 µM (inactive)

Please report the measured GI50 for CC1(C)N=C(c2ccccc2)SC12S[C@@H]1CCCC[C@H]1S2
> 100 µM (inactive)

Please list GI50 recorded for the compound Oc1cccc2c(Br)ccnc12
12.3 µM (inactive)

Please look at this compound and report its GI50: CSc1nc(NC2OCC(OC(C)=O)C(OC(C)=O)C2OC(C)=O)c(/N=C(\C)C(C)=O)c(=O)[nH]1 (stereo unspecified)
> 100 µM (inactive)

Give GI50 for the following compound: COC(=O)CCC(=O)NC1=C(NCc2ccccc2)C(=O)c2ccccc2C1=O
88.3 µM (inactive)

Tell me its GI50 given C=CCCC(On1c(-c2ccc(Cl)cc2)csc1=S)c1ccccc1 (stereo unspecified) as the entry.
85.3 µM (inactive)

Give recorded GI50. ON(CCc1ccncc1)Cc1ccccc1
> 100 µM (inactive)

Give a short answer stating reported GI50 for COc1ccc(NC(=O)CC(=O)N2N=C(C)C(/N=N\c3ccc(S(=O)(=O)c4ccc(/N=N/C5C(=O)N(C(=O)CC(=O)Nc6ccc(OC)cc6)N=C5C)cc4)cc3)C2=O)cc1 (stereo unspecified) .
> 100 µM (inactive)

Tell us which GI50 value is on record for CCOC(=O)Cc1cnc(NC(NC(=O)CC)(C(F)(F)F)C(F)(F)F)s1
> 100 µM (inactive)

Please report the measured GI50 for CSc1nnc2n1-c1ccccc1SCC2
> 100 µM (inactive)

Respond only with GI50 recorded for C/C(=N\Nc1nc2cccnc2s1)c1ccccn1
0.364 µM (active)

Specify measured GI50 for COc1ccc(/C=c2/sc3n(c2=O)NC(c2ccc(Cl)cc2)NN=3)cc1 (stereo unspecified) .
> 100 µM (inactive)
